Data credit: PubChem BioAssay AID330

Known T/C of a selection of compounds
Tested on: P388 leukemia ip, CD2F1 mice, survival T/C
Test: NCI In Vivo Anticancer Drug Screen. Data for tumor model P388 Leukemia (intraperitoneal) in CD2F1 (CDF1) mice
Conditions: endpoint: median survival time; dose: 12.5 mg/kg/injection; schedule: Q01DX005 (ip); vehicle: Klucel (hydroxypropylcellulose) (HPC); higher = longer survival
Inconclusive results and toxic doses are left out. Peptide text beside a SMILES is read from it. * marks the point of attachment. Cbz = O=C(OCc1ccccc1)*; Bn = c1ccc(C*)cc1

Sample answers from the record:
{"Compound": "CN(C)CCCOc1cccc(NC2=C(Cl)C(=O)C(Nc3cccc(OCCCN(C)C)c3)=C(Cl)C2=O)c1", "Assay system": "P388 leukemia ip, CD2F1 mice, survival T/C", "Result": "100 % of control"}
{"Compound": "O=C1c2ccccc2C(C2c3ccccc3C(=O)c3cc(Br)ccc32)c2ccc(Br)cc21 (stereo not given)", "Assay system": "P388 leukemia ip, CD2F1 mice, survival T/C", "Result": "88 % of control"}
{"Compound": "CC(C)N(C(C)C)P1N(C(C)(C)C)N=NN1C(C)(C)C", "Assay system": "P388 leukemia ip, CD2F1 mice, survival T/C", "Result": "102 % of control"}

What value of T/C has been reported for the following compound? Nc1ccc(S(=O)(=O)n2c(=O)oc3cc(Cl)ccc32)cc1
100 % of control

What value of T/C has been reported for the following compound? CC(=O)OCC1=C(C)CC(C(C)C2CCC3C4CC5OC56C(OC(C)=O)C(N5CC5)CC(=O)C6(C)C4CCC23C)OC1=O (stereo not given)
104 % of control

What value of T/C has been reported for the following compound? CCC1=CCC2C(=O)C3CC(CC)=CCC3C(=O)C2C1 (stereo not given)
97 % of control

What value of T/C has been reported for the following compound? COC(=O)Cc1nc2c(=O)[nH]c(N)nc2[nH]c1=O
95 % of control

What value of T/C has been reported for the following compound? Cc1cnc(C#N)c(C#N)n1
106 % of control

What value of T/C has been reported for the following compound? O=C1c2c(Cl)c(Cl)c(Cl)c(Cl)c2C(=O)C2(Cl)CC=CCC12Cl (stereo not given)
95 % of control

What value of T/C has been reported for the following compound? NC(=O)C(Cc1ccccc1)NC(=O)C(CSCc1ccccc1)NC(=O)OCc1ccccc1 (stereo not given) (Cbz-Cys(Bn)-Phe-NH2; configuration not given here)
103 % of control

---

System: P388 leukemia ip, CD2F1 mice, survival T/C
Test: NCI In Vivo Anticancer Drug Screen. Data for tumor model P388 Leukemia (intraperitoneal) in CD2F1 (CDF1) mice
Details: endpoint: median survival time; dose: 100.0 mg/kg/injection; schedule: Q01DX005 (ip); vehicle: saline; higher = longer survival
Inconclusive results and toxic doses are left out.
Known T/C of a selection of compounds

What value of T/C has been reported for the following compound? CC(O)C(=O)NCO (stereo not drawn)
100 % of control

What value of T/C has been reported for the following compound? CC(C)C1=CC23CCC4C(C)(C(=O)O)CCCC4(C)C2CC1C(C(=O)O)C3C(=O)O (stereo not drawn)
96 % of control

What value of T/C has been reported for the following compound? Nc1cc2[nH]ccc2c(=O)[nH]1
113 % of control

---

System: P388 leukemia ip, CD2F1 mice, survival T/C
Assay: NCI In Vivo Anticancer Drug Screen. Data for tumor model P388 Leukemia (intraperitoneal) in CD2F1 (CDF1) mice
Conditions: endpoint: median survival time; dose: 100.0 mg/kg/injection; schedule: Q01DX009 (ip); vehicle: saline
Inconclusive results and toxic doses are left out. How the source made its calls: active means survival T/C of 150% or more; inactive means T/C below 125% in these data.
Just give me one of these, please: active, inactive

{"Compound": "N#CC(C#N)=Cc1ccc(N2CCOCC2)cc1", "Group label": "inactive"}
{"Compound": "CC(=O)SC1CC(=O)OC1=O (configuration not stated)", "Group label": "inactive"}
{"Compound": "NC(Cc1cnc[nH]1)C(=O)O (configuration not stated)", "Group label": "inactive"}
{"Compound": "COCCc1nn[nH]n1", "Group label": "inactive"}
{"Compound": "CCOC(=O)CN(C=O)C(C)c1ccccc1 (configuration not stated)", "Group label": "inactive"}
{"Compound": "Nc1cc(N)c(N=Nc2cccc3c(S(=O)(=O)O)cccc23)cc1N=Nc1cc([N+](=O)[O-])ccc1O", "Group label": "inactive"}
{"Compound": "O=C1C(O)=C(O)C(=O)C(O)=C1O", "Group label": "inactive"}
{"Compound": "O=C(O)C(=O)Nc1cccc2c1ccc1c(=O)cc(C(=O)O)[nH]c12", "Group label": "inactive"}
{"Compound": "NC(CCCCNCC(N)C(=O)O)C(=O)O (configuration not stated)", "Group label": "inactive"}
{"Compound": "Nc1ccn(C2OC(CCl)C(O)C2O)c(=O)n1 (configuration not stated)", "Group label": "active"}

Give the logged outcome of this assay for the following compound: CC(=O)OC1CCC(C2CCCCC2)CC1 (configuration not stated)
inactive

Give the logged outcome of this assay for the following compound: Cc1ncc2n1-c1ccc(Cl)cc1C(c1ccccc1F)=NC2
inactive

Give the logged outcome of this assay for the following compound: C/C=C\n1ccccc1=O
inactive

Give the logged outcome of this assay for the following compound: CCN(CC)CCOC(=O)/C=C\c1cccc2c(=O)cc(-c3ccccc3)oc12
inactive

Give the logged outcome of this assay for the following compound: COc1ccc(N=Cc2ccc(C=Nc3ccc(OC)cc3OC)cc2)c(OC)c1
inactive

Give the logged outcome of this assay for the following compound: O=C1c2cccc(O)c2C(=O)c2c(OC3OC(CO)C(O)C(O)C3O)cccc21 (configuration not stated)
inactive

Give the logged outcome of this assay for the following compound: CC1=NC(C)(CO)CO1 (configuration not stated)
inactive

---

System: P388 leukemia ip, CD2F1 mice, survival T/C
Assay: NCI In Vivo Anticancer Drug Screen. Data for tumor model P388 Leukemia (intraperitoneal) in CD2F1 (CDF1) mice
Conditions: endpoint: median survival time; dose: 50.0 mg/kg/injection; schedule: Q01DX005 (ip); vehicle: saline with Tween-80; higher = longer survival
Inconclusive results and toxic doses are left out.
Assay endpoint: T/C

Sample answers from the record:
{"Compound": "Cc1nn(C(N)=S)c(C)c1N=Nc1cc(Cl)ccc1Cl", "T/C": "94 % of control"}
{"Compound": "O=C(CBr)Oc1ccc([N+](=O)[O-])cc1", "T/C": "102 % of control"}
{"Compound": "C=CCN1C(=O)c2cc(Cl)c(Cl)cc2C1=O", "T/C": "102 % of control"}
{"Compound": "CC1CN2COC(=S)SSSSC(=S)OCN3CC(C)N(COC(=S)SSSSC(=S)OCN1CC2C)CC3C (stereo not given)", "T/C": "99 % of control"}

Now look at this one.
What value of T/C has been reported for the following compound? COc1ccc2c(c1)OCCN(C)OC2c1ccccc1 (stereo not given)
96 % of control

---

Known T/C of a selection of molecules
Tested on: P388 leukemia ip, CD2F1 mice, survival T/C
Assay: NCI In Vivo Anticancer Drug Screen. Data for tumor model P388 Leukemia (intraperitoneal) in CD2F1 (CDF1) mice
Details: endpoint: median survival time; dose: 12.5 mg/kg/injection; schedule: Q01DX009 (ip); vehicle: saline with Tween-80; higher = longer survival
Inconclusive results and toxic doses are left out.

{"Molecule": "N#CC1(c2ccccc2)OC1(C#N)c1ccccc1 (stereo not drawn)", "Result": "96 % of control"}

Write down the reported T/C of CCOC(=O)C1(C(=O)OCC)COC(C)(C)OC1 , test system: P388 leukemia ip, CD2F1 mice, survival T/C.
105 % of control

Write down the reported T/C of Cc1cc2nc(C=C(C(F)(F)F)C(F)(F)F)oc2cc1C , test system: P388 leukemia ip, CD2F1 mice, survival T/C.
93 % of control

Write down the reported T/C of CC(=O)c1ccc[n+](CCc2c[nH]c3ccccc23)c1 , test system: P388 leukemia ip, CD2F1 mice, survival T/C.
104 % of control

Write down the reported T/C of COc1ccc(OC)c(N2C(=O)C=C(C)C2(O)CC#N)c1 (stereo not drawn) , test system: P388 leukemia ip, CD2F1 mice, survival T/C.
95 % of control

Write down the reported T/C of Cc1cnc(Cl)nc1Sc1nc(N)nc2nc[nH]c12 , test system: P388 leukemia ip, CD2F1 mice, survival T/C.
122 % of control

Write down the reported T/C of CCCCOc1cc(C(=O)NCCN(CC)CC)c2ccccc2n1 , test system: P388 leukemia ip, CD2F1 mice, survival T/C.
113 % of control

Write down the reported T/C of CCOC(=O)SC(=S)OCC , test system: P388 leukemia ip, CD2F1 mice, survival T/C.
114 % of control
